- Tested on: UACC-62 melanoma
- Assay Method Text: NCI tumour cell line growth inhibition, 48 h
Measurement Name: TGI (µM)
Answers are plain numbers, in µM.

* COC(=O)Nc1nc2ccc(C(=O)c3cccc(I)c3)cc2[nH]1 | 18.1
* Nc1nc(N)c2c(ccc3c2ccn3Cc2cccc([N+](=O)[O-])c2)n1 | 1.39

Answer for every listed entry: what is its TGI? The entries follow.
1. O=C(Nc1ccc(Br)c2ccccc12)c1ccc2ccccc2c1O
2. CC1Cc2c(Cl)ncnc2N(C)c2ccccc21 (stereo not given)
3. COc1cc2[nH]c3c(c2cc1OC)CCN[C@@]31CC[C@@]2(CC3c4c(cc(OC)c(O)c42)CCN3C)C[C@@H]1OC (stereo not given in full)

Result:
15
12.8
45.3

====

- Test system: SK-MEL-28 melanoma
- Assay Method Text: NCI tumour cell line growth inhibition, 48 h
Provide the reported TGI of each item.

• COC(=O)Nc1nc2ccc(C(=O)c3cccc(I)c3)cc2[nH]1 = > 81.2 µM
• c1ccc2c(N=NSc3ncnc4nc[nH]c34)c3ccccc3nc2c1 = 3.71 µM
• COc1cc2c(cc1OC)C(Cl)C(c1ccc(Br)cc1)=C2Cl (stereo unspecified) = 30.7 µM
• Clc1nc2nc(N3CCNCC3)nc(N3CCCC3)c2[nH]1 = 39.6 µM
• CC1(C)OCC2OC(n3cnc4c(N)nc(Cl)nc43)C(OS(C)(=O)=O)C2O1 (stereo unspecified) = > 100 µM
• N#CCCN(CCCCN(CCC#N)C(=O)Nc1ccccc1)C(=O)Nc1ccccc1 = > 100 µM
• [N-]=[N+]=C(C(=O)CN1CCCC1=O)S(=O)(=O)c1ccccc1 = > 100 µM
• CCOc1ccccc1N=NC1C(=O)N(C(=O)CC(=O)Nc2ccccc2C)N=C1C (stereo unspecified) = > 100 µM

For each of the compounds below, state TGI.
1. O=C1C(Cl)N(c2ccc([N+](=O)[O-])cc2)C1c1c[nH]c2ccccc12 (stereo unspecified)
2. COC1(OC)CC(CO)(COc2cc(Cl)nc(N)n2)C1
3. COc1ccc(N=NC2=C(O)CCC2=O)cc1

Result:
1: > 100 µM; 2: > 100 µM; 3: > 100 µM

====

Exercise: for every item that follows, state its recorded TGI.
- Tested on: SNB-78 CNS
- Assay Method Text: NCI tumour cell line growth inhibition, 48 h

• NC(=O)NNC/C(Cl)=C(\Cl)C(=O)O = > 100 µM

# batch: return TGI for each of the 5 molecules below
1. N#CC1=C(O)NC(O)=C(C#N)C1c1c(Cl)cccc1Cl
2. OC1OCC(COc2cc(Cl)c(Cl)cc2Cl)OC1O (centres undefined)
3. COc1ccc(C(C2=C(O)CC(C)OC2=O)C2=C(O)CC(C)OC2=O)cc1 (centres undefined)
4. CCC(O)CCCCCCCCCCCCCCC(=O)O (centres undefined)
5. CC1(c2ccc(F)cc2)C2C(=O)NC(=O)C1C(=O)NC2=O (centres undefined)

Result:
1: > 100 µM; 2: 79.7 µM; 3: > 100 µM; 4: > 100 µM; 5: > 100 µM

Below are some molecules; for each one, tell me its TGI.
1. Cc1cc(N(CCC#N)S(=O)(=O)c2ccccc2)ccc1C=Nc1ccc(C(=O)O)cc1
2. O=C1c2ccccc2C(=O)N1CC#CCO
3. O=S(=O)(O)c1cc(S(=O)(=O)O)c2cc(N=Nc3ccc(N=Nc4ccc(/C=C/c5ccc(N=[N+]([O-])c6ccc(/C=C/c7ccc(N=Nc8ccc(N=Nc9ccc%10cc(S(=O)(=O)O)cc(S(=O)(=O)O)c%10c9)cc8)cc7S(=O)(=O)O)c(S(=O)(=O)O)c6)cc5S(=O)(=O)O)c(S(=O)(=O)O)c4)cc3)ccc2c1

Result:
1. 34.7 µM
2. > 100 µM
3. > 100 µM

====

- Tested on: RPMI-8226 leukemia
- Assay Method Text: NCI tumour cell line growth inhibition, 48 h
Measurement Name: GI50

Look over these answered cases.
- CCOC(=O)N1CCC(N=C2CSc3nnc(-c4cc(C(F)(F)F)cc(C(F)(F)F)c4)n3N2)CC1: 2.54 µM
- Nc1nc(-c2ccc3c(c2)/C(=C\c2cc(Br)c(O)c(Br)c2)C(=O)N3)cs1: 14.9 µM
- CN1C(=O)N(C)C2C1NC(=S)N2/N=C/C=C/c1ccccc1[N+](=O)[O-] (configuration not stated): 2.74 µM

Please report GI50 for every entry that follows.
1. COc1ccc(C(=O)/C=C/c2ccc(OCc3cccc(C(F)(F)F)c3)c(OC)c2)cc1OC
2. O=C(Nc1nc2c(C(F)(F)F)cccc2s1)c1cc(Cl)ccc1O
3. O=C(Nc1ccc(Cl)c(Cl)c1)c1ccc(NC2=C(Cl)C(=O)N(Cc3ccccc3)C2=O)cc1
4. CCCCCCCCN(CCCCCCCC)CC(O)c1cc(-c2ccccc2)nc2ccc(OC)cc12 (configuration not stated)
5. CCN(CC)CCOc1nc2ccccc2c2c1-c1ccc(OC)cc1C2=O
6. CCC[CH2][Sn]1([CH2]CCC)[O]C(=O)c2cccc([N+](=O)[O-])c2C(=O)[O]1
7. Cc1cc(I)cc(CN(C)CCCN2CCC(C)CC2)c1O
8. COc1nn(C)cc1Nc1nccc(-c2c[nH]c3c(NC(=O)[C@@H](C)N4CCN(C)CC4)cccc23)n1

Result:
["25.3 µM", "0.203 µM", "2.02 µM", "10.3 µM", "0.449 µM", "0.186 µM", "12.6 µM", "49.5 µM"]

I need GI50 for every entry listed below, if you could help.
1. Cc1ccc2sc3c(NCCCN)nc4ccccc4c3c(=O)c2c1
2. CCC(=O)NC1=C(Cl)C(=O)C(NC(=O)CC)=C(Cl)C1=O
3. Cc1[nH]nc(C(F)(F)F)c1Cc1sc2c(c1C(=O)N1C[C@](C)(O)CO1)c(=O)n(C)c(=O)n2C(C)C
4. CN1CCN(Cc2ccc(NC(=O)c3cncc(C#Cc4ccc(N)nc4)c3)cc2C(F)(F)F)CC1
5. COc1cc2c(cc1OCC(=O)Nc1ccc(Cl)cc1C(=O)c1ccccc1Cl)N=CC1CCCN1C2=O (configuration not stated)

Result:
["2.41 µM", "8.98 µM", "> 100 µM", "1.05 µM", "20.3 µM"]

Request: Value wanted: GI50 (RPMI-8226 leukemia) of entry Nc1ccc(C#Cc2ccccc2C#CCCCCO)cc1
Result: 18.1 µM

====

- System: T-47D breast
- Assay Method Text: NCI tumour cell line growth inhibition, 48 h
Measurement Name: TGI (µM)
Answers are plain numbers, in µM.

* C=CCc1c(O)c(C(=O)/C=C/c2ccc(Cl)cc2)c(OC)c2ccoc12 | 19

API: the following record is the query input.
Request: Name the reported TGI value associated with the compound CC(=O)C1=C(C)N(Cc2ccccc2)C2(O)C=CC(=O)C3=C(O)c4ccccc4C(=O)C312 (stereo not given)
Result: 7.97

====

Give GI50 for every item shown.
- Test system: A549 NSCLC
- Assay Method Text: NCI tumour cell line growth inhibition, 48 h

• COC(=O)Nc1nc2ccc(C(=O)c3cccc(I)c3)cc2[nH]1 = 0.0699 µM
• O=C1C=CC2C3C(=O)N(c4ccccc4)C(=O)C3C1N2Cc1ccccc1 (stereo unspecified) = 14.9 µM
• COc1cc2ncnc(Oc3ccc(NC(=O)Nc4ccc(CN5CCOCC5)c(C(F)(F)F)c4)c4ccccc34)c2cc1OC = 0.734 µM
• Cc1cc(I)cc(CN(C)CCCN2CCC(C)CC2)c1O = 15.4 µM
• C[C@@H]1CC[C@@H]2[C@@H]1[C@H](OC(=O)/C=C/C1CCCCC1)[C@]1(C3CCCCC3)C[C@@H](OC(=O)CO)[C@@]2(C)O1 = 14.2 µM

Kindly review the next molecule as well.
Request: Requested field: GI50. Item: CC1Cc2c(Cl)ncnc2N(C)c2ccccc21 (stereo unspecified)
Result: 4.85 µM

====

- System: HL-60(TB) leukemia
- Assay Method Text: NCI tumour cell line growth inhibition, 48 h
Measurement Name: GI50

Here are 10 compounds together with their reported answers.
- CCC[CH2][Sn]1([CH2]CCC)[O]C(=O)c2cccc([N+](=O)[O-])c2C(=O)[O]1: 206 nM
- Cc1[nH]nc(C(F)(F)F)c1Cc1sc2c(c1C(=O)N1C[C@](C)(O)CO1)c(=O)n(C)c(=O)n2C(C)C: > 100000 nM
- CCCCCCC(=O)NC1=C(N2CC2)C(=O)C(NC(=O)CCCCCC)=C(N2CC2)C1=O: 3170 nM
- CN(C(=O)C(C)(C)C)c1ccccc1I(=O)=O: 3810 nM
- CC1=CC(C)=N/C(=N/S(=O)(=O)c2cc(C)c(Cl)cc2SCc2ccccc2)NN1: > 100000 nM
- COC(=O)[C@]1(C)CCC[C@@]2(C)C3=C(CC[C@H]12)C[C@@H](CC(OC(C)=O)OC(C)=O)[C@@H](C)C3: 14400 nM
- Cc1cc(OCc2ccc(C(F)(F)F)cc2)c2c(c1)C(=O)C=C(NCCN1CCCC1)C2=O: 1710 nM
- Clc1cnc(Nc2ccc(OCCN3CCCC3)cc2)nc1NCc1ccco1: 1030 nM
- COc1nn(C)cc1Nc1nccc(-c2c[nH]c3c(NC(=O)[C@@H](C)N4CCN(C)CC4)cccc23)n1: 28900 nM
- COc1cc(OC)c(/C=C/C(=O)c2c(OC)cc(OC)cc2OC)c(OC)c1: 637 nM

Now let's try a different one.
Request: API: value(readout= GI50, system= HL-60(TB) leukemia, query= Oc1c(C(c2ccc(F)cc2)N2CCCCC2)ccc2cncnc12 (stereo unspecified) )
Result: 1140 nM
